For each entry below, report its pEC50 value.
Target Desc: human recombinant NK2 receptors (Homo sapiens, UniProt P21452)
Sequence (P21452 1-398): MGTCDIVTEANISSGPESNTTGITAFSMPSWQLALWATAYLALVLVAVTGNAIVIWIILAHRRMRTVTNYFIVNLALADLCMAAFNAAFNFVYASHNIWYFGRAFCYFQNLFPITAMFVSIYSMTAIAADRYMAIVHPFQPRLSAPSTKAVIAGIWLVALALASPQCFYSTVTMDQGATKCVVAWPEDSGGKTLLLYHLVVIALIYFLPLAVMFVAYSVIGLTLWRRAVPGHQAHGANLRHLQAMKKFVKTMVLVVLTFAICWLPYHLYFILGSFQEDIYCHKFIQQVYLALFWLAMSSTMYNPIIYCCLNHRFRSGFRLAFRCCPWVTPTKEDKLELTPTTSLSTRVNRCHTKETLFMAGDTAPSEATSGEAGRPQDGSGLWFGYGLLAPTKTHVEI
Experimental Details: cell-based
Test Context: Intracellular Ca^2+ pEC50, CHO-hNK2 cells; mean ± SD
Non-standard residues stand in square brackets, D forms with d. Residues, ends and D or L forms follow the SMILES beside them. Nle = CCCC[C@H](N)C(=O)O; βAla = NCCC(=O)O
Interpret pEC50 as the negative base-10 log of the concentration measured in mol/L.

response.value for CSCC[C@H](NC(=O)[C@H](CC(C)C)N(C)C(=O)CNC(=O)[C@@H](NC(=O)[C@H](Cc1ccccc1)NC(=O)[C@H](CCCCN)NC(=O)[C@@H](N)CC(=O)O)C(C)C)C(N)=O [[Lys^5,MeLeu^9]-NKA(4–10), Asp-Lys-Phe-Val-Gly-(NMe-Leu)-Met-NH2] (field: pEC50) = 9.84

Lab note: CCCC[C@H](NC(=O)[C@H](CC(C)C)NC(=O)CCNC(=O)[C@@H](NC(=O)[C@H](Cc1ccccc1)NC(=O)[C@H](CCCNC(=N)N)NC(=O)[C@@H](N)CC(=O)O)C(C)C)C(N)=O [[Arg^5,β-Ala^8,Nle^10]-NKA(4–10), Asp-Arg-Phe-Val-[β-Ala]-Leu-Nle-NH2] (H-DRFV[βAla]L[Nle]-NH2) gave pEC50 of 8.94

Sample CSCC[C@H](NC(=O)[C@H](CC(C)C)NC(=O)CCNC(=O)[C@@H](NC(=O)[C@H](Cc1ccccc1)NC(=O)[C@H](CCCNC(=N)N)NC(=O)[C@@H](N)CC(=O)O)C(C)C)C(N)=O [[Arg^5,β-Ala^8]-NKA(4–10), Asp-Arg-Phe-Val-[β-Ala]-Leu-Met-NH2] (H-DRFV[βAla]LM-NH2) ; pEC50 observed: 9.82
